experimental_target: NHE-1 (Homo sapiens, UniProt P19634)
Construct: endogenous in cells
Sequence (P19634 whole entry): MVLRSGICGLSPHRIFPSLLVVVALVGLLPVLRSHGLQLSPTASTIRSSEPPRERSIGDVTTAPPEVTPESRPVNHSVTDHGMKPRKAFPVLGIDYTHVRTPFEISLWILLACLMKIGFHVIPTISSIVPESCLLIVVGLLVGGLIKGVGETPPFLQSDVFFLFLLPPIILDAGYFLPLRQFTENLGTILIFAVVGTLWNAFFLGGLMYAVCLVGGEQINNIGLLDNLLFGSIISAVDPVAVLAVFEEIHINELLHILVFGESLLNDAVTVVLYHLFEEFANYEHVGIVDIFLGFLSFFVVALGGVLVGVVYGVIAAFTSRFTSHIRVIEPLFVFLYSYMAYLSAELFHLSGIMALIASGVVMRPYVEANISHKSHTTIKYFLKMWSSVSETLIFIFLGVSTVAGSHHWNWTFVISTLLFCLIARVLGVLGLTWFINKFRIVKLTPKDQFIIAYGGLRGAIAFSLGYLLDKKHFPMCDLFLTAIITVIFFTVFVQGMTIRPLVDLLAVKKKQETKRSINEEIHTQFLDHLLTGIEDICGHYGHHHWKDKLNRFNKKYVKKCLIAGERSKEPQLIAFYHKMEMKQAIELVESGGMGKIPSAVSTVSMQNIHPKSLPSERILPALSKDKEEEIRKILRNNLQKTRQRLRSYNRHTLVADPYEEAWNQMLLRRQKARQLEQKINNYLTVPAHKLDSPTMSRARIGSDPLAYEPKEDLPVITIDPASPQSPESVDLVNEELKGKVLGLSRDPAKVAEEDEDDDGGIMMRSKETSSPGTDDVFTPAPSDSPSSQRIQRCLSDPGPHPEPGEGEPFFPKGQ
assay_summary: Evaluation of NHE-1 Inhibition (pHi) in HT-29 cells
settings: BCECF dye, 50% inhibition of the intracellular pH recovery, read-out: NHE1 HT29 pHi IC50
result_type: IC50 (nM)

1 = N=C(N)NC(=O)c1ccc(C2CCN(C(=O)CCc3ccccc3)CC2)c(C(F)(F)F)c1
2 = N=C(N)NC(=O)c1ccc(C2CCN(C(=O)C3COCCN3)CC2)c(C(F)(F)F)c1 (stereo not shown)
Which of the two gives a bigger number for IC50: 1 or 2 ? Refer to your chosen item by its label in the answer. 1
(1: 75 nM, 2: 35 nM)

A = COCC(=O)N1CCC(c2ccc(C(=O)NC(=N)N)cc2C(F)(F)F)CC1
B = Cn1cccc1C(=O)N1CCC(c2ccc(C(=O)NC(=N)N)cc2C(F)(F)F)CC1
Compare A and B and name the one whose reported IC50 is smaller. Refer to your chosen item by its label in the answer. A
(A: 22 nM, B: 79 nM)
